# test_protocol: Saturation mutagenesis of SEQ ID NO:109: dicamba decarboxylation activity of point mutants (CO2 released), fold of backbone (Tables 7, 8, Megatable 1)
# stated_conditions: decarboxylation activity (CO2 released) of point mutant vs unmutated backbone protein; backbone SEQ ID NO: 109
value_type: Fold Activity (fold)
Return type: number; implicit unit fold.

q: Returns the measured Fold Activity for the input molecule. Input: 42 (protein, Agrobacterium radiobacter) MAQGKIALEEHFAIPDTLQDSAGFVPGDYWKELSARLLDIHEQRLMQMDAYGIEKMILSLNAPAVQAIPDKAKALEISRRANDFLAEQCARNPDRFLGFAALPLQDPDAATAELQRCVKTLGFVGALVNGFSQEGDGVTPLYYDLPQYRGFWAEVEKLAVPFYLHPRNPLPQDSRIYAGHPWLMGPTWAFAQETAVHALRLVGSGLFDDHPALRIILGHMGEGLPYMMWRIDNRNAWVKVAPNYPAKRRIADYFNENFYITTSGNFRTQSLVDAMLEIGADRILFSTDWPFENIDHASDWFDTATISEADRLKIGRTNAATLFNLES
a: 1.7

Each recorded value in this set is attributed to patent US20160040149A1.
